# targetEntity: Nuclear receptor ROR-gamma (Mus musculus) (UniProt P51450)
# Sequence (P51450 whole entry, looked up): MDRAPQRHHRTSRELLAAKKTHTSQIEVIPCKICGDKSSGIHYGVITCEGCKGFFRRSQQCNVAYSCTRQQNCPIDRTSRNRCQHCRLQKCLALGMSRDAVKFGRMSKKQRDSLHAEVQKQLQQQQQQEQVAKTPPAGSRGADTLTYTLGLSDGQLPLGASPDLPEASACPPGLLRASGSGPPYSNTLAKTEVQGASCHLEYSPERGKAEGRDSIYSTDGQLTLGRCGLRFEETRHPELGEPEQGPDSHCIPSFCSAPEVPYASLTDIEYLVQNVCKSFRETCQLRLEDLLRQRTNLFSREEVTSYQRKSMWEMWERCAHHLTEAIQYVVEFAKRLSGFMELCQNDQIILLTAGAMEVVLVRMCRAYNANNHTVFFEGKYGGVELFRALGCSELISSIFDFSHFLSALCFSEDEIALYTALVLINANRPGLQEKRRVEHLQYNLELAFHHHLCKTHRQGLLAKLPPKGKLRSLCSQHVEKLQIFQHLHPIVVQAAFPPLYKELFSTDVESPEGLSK
# protocolSummary: qHTS for inhibitors of ROR gamma transcriptional activity; further: nearly all actives have a fitted effect of over 60% in size
# statedConditions: Drosophila S2 Gal4-RORgamma UAS-luciferase reporter, 20 h; series mostly up to 53.6 µM
Screen size: about 310,000 compounds; about 17,000 (5.5%) were called active. Another 11% or so got no clear call; they are omitted. The call rests on the fitted dose curve; in most records, active means well fitted inhibition curve with a large enough effect; inconclusive means small, poorly fitted or top-dose-only effect, or effect the other way; inactive means no such curve, though single readings can be large or run the other way. The full list was thinned out, with actives kept by preference.
Outcome field: choose from active, inactive

recordSmiles	discreteLabel
O=C(c1cnn(-c2ccc(Cl)cc2)c1)c1ccccc1O	inactive

Short answer needed: outcome of this test for "O=C(O)c1ccc(/C=N/Nc2nc(N3CCCCC3)nc(N3CCCCC3)n2)cc1" ? inactive

Short answer needed: outcome of this test for "O=C(Nc1ccncc1)Nc1ccc(F)cc1" ? inactive

Short answer needed: outcome of this test for "COc1ccc(CNC(=O)[C@H](Cc2c[nH]c3ccccc23)NC(C)=O)cc1OC" ? inactive

Short answer needed: outcome of this test for "COc1ccc(C(=O)Cc2cnn(-c3ccccc3)c2)c(O)c1" ? inactive

Short answer needed: outcome of this test for "Cc1cc(O)cc(O)c1C(=O)Cc1cnn(-c2ccccc2)c1" ? active

----------
# targetEntity: Nuclear receptor ROR-gamma (Mus musculus) (UniProt P51450)
# protocolSummary: qHTS for inhibitors of ROR gamma transcriptional activity; further: nearly all actives have a fitted effect of over 60% in size
# statedConditions: Drosophila S2 Gal4-RORgamma UAS-luciferase reporter, 20 h; series mostly up to 53.6 µM
About 17,000 (5.5%) of roughly 310,000 compounds were called active. Not shown: some 11% with an inconclusive outcome. The call rests on the fitted dose curve; in most records, active means well fitted inhibition curve with a large enough effect; inconclusive means small, poorly fitted or top-dose-only effect, or effect the other way; inactive means no such curve, though single readings can be large or run the other way. The sample as a whole holds a higher share of actives than the screen did.
Outcome field: choose from active, inactive

compound	discreteLabel
CCOc1cccc(/C=C/c2ccc3ccccc3n2)c1OC(C)=O	active

Short answer needed: outcome of this test for "O=C(Cc1ccc(Br)cc1)NCCN1CCOCC1" ? inactive

Short answer needed: outcome of this test for CC(OC(=O)c1ccc2ccccc2n1)C(=O)c1ccccc1 (stereo unspecified) ? inactive

Short answer needed: outcome of this test for "COc1ccc(NC(=O)c2cc(-c3cc(OC)c(OC)c(OC)c3)nc3ccccc23)c(OC)c1" ? inactive

Short answer needed: outcome of this test for "CCOc1ccccc1-c1cc(C(=O)N2CCOCC2)c2ccccc2n1" ? inactive

Short answer needed: outcome of this test for "Cc1ccc(S(=O)(=O)N/N=C(\c2ccccc2)C2CC2)cc1" ? inactive

Short answer needed: outcome of this test for "Cc1ccc(NC(=O)C/C(N)=N/O)cc1Cl" ? inactive

Short answer needed: outcome of this test for "CC(=O)c1ccc(S(=O)(=O)N2CCN(C(=O)/C=C/c3ccc4ccccc4n3)CC2)cc1" ? inactive

Short answer needed: outcome of this test for "O=C(Cc1ccc(Cl)c(Cl)c1)Nc1ccc(SC(F)F)cc1" ? inactive

Short answer needed: outcome of this test for "COc1cccc(/C=C/c2ccc3ccccc3n2)c1OC(C)=O" ? active

Short answer needed: outcome of this test for "COc1cccc(/C=C2\C=C(c3ccc(C)cc3)OC2=O)c1OC(C)=O" ? inactive

----------
# targetEntity: Nuclear receptor ROR-gamma (Mus musculus) (UniProt P51450)
# protocolSummary: qHTS for inhibitors of ROR gamma transcriptional activity; further: nearly all actives have a fitted effect of over 60% in size; further: potency means the concentration at half of the fitted maximal effect
# statedConditions: Drosophila S2 Gal4-RORgamma UAS-luciferase reporter, 20 h; series mostly up to 53.6 µM
Screen size: about 310,000 compounds; about 17,000 (5.5%) were called active. About 11% were inconclusive and are not listed. This is one part of a sample in which actives are shown more often than they occur.
measuredAttribute: Potency

Examples from the recorded data:
compound	measuredAttribute	endpointValue
COC(=O)c1ccccc1NC(=O)CSc1nc2c(c(=O)[nH]1)CCC2	Potency	inactive
CNS(=O)(=O)c1cccc(C(=O)NC2CCCc3ccccc32)c1 (configuration not stated)	Potency	inactive
Cc1ccc(C(=O)NCCNC(=O)c2cnccn2)cc1	Potency	inactive
COc1cc(/C=N/O)ccc1OCc1ccc([N+](=O)[O-])cc1	Potency	inactive
COC(=O)c1ccc(C(=O)Nc2cc(Cl)ccc2Cl)cc1NC(=O)c1ccccc1C	Potency	11.2 µM (active)
O=C(Nc1ccncc1)c1ccc([N+](=O)[O-])cc1Cl	Potency	inactive

The reported value for "Cc1ccc(/C=N/NC(=O)Cn2ccc(C(F)(F)F)n2)o1" in terms of Potency is inactive

The reported value for "CC(C)(C)c1ccc(CN2C(=O)c3ccccc3S2(=O)=O)cc1" in terms of Potency is inactive

The reported value for CC(NC(=O)C1CCCN(S(=O)(=O)c2ccc(-n3cnnn3)cc2)C1)c1ccc(F)cc1 (configuration not stated) in terms of Potency is inactive

The reported value for "Cc1c(C(=O)N/N=C/c2ccccc2)[nH]c2c([N+](=O)[O-])cccc12" in terms of Potency is inactive

The reported value for "CC1=C/C(=N\S(=O)(=O)c2ccccc2)C(C(C)C)=CC1=O" in terms of Potency is inactive

The reported value for "COc1ccc(N(CC(=O)N2CCCCCC2)S(=O)(=O)c2ccccc2)cc1" in terms of Potency is inactive

----------
# targetEntity: Nuclear receptor ROR-gamma (Mus musculus) (UniProt P51450)
# protocolSummary: qHTS for inhibitors of ROR gamma transcriptional activity; further: nearly all actives have a fitted effect of over 60% in size
# statedConditions: Drosophila S2 Gal4-RORgamma UAS-luciferase reporter, 20 h; series mostly up to 53.6 µM
# Description: NIH Molecular Libraries Probe Production Network [MLPCN] NIH Chemical Genomics Center [NCGC] […] Small molecule inhibitors of ROR gamma activity are detected by a decrease in luciferase reporter activity. […]
Screen size: about 310,000 compounds; about 17,000 (5.5%) were called active. About 11% were inconclusive and are not listed. Calls come from the whole dose curve; as a rule, active = well fitted inhibition curve with a large enough effect; inconclusive = small, poorly fitted or top-dose-only effect, or effect the other way; inactive = no such curve, though single readings can be large or run the other way. Only a selection was taken, and actives are over-represented in it overall.
Outcome field: choose from true (1) = active, false (0) = inactive

molecule	discreteLabel
O=C(Nc1ccccc1C(=O)Nc1ccncc1)c1ccc([N+](=O)[O-])cc1	false (0)
Cc1ccc(-n2c(SCC(=O)NCCC3=CCCCC3)nc3n[nH]c(C)c3c2=N)cc1Cl	false (0)
NS(=O)(=O)c1ccc(NC(=S)N2CCCC2)cc1	false (0)
COc1cccc(/C=C2/SC(=S)N(CC(=O)NC3C=CS(=O)(=O)C3)C2=O)c1 (stereo unspecified)	false (0)
O=C(Nc1ccccc1C(=O)O)c1ccc(N2C(=O)C3CC=CCC3C2=O)cc1 (stereo unspecified)	false (0)

Short answer needed: outcome of this test for COc1ccc(CN2CCCC(N3CCc4ccccc4C3)C2)c(O)c1 (stereo unspecified) ? false (0)

Short answer needed: outcome of this test for CCC(C)N(C)C1CCN(C(=S)Nc2ccc(OC)cc2)CC1 (stereo unspecified) ? false (0)

Short answer needed: outcome of this test for "CN(CC(=O)Nc1ccccc1C(F)(F)F)C(=O)Cc1ccccc1F" ? false (0)

----------
# targetEntity: Nuclear receptor ROR-gamma (Mus musculus) (UniProt P51450)
# protocolSummary: qHTS for inhibitors of ROR gamma transcriptional activity; further: nearly all actives have a fitted effect of over 60% in size
# statedConditions: Drosophila S2 Gal4-RORgamma UAS-luciferase reporter, 20 h; series mostly up to 53.6 µM
About 17,000 (5.5%) of roughly 310,000 compounds were called active. Inconclusive results (about 11%) are left out. Calls follow the shape of the dose curve; as a rule, active = well fitted inhibition curve with a large enough effect; inconclusive = small, poorly fitted or top-dose-only effect, or effect the other way; inactive = no such curve, though single readings can be large or run the other way. The entries come from a sample that favours actives as a whole.
Outcome field: choose from yes (1) = active, no (0) = inactive

compound	discreteLabel
COc1ccc(-c2nc(CS(=O)CC(=O)NCc3ccccc3)c(C)o2)cc1OC (stereo unspecified)	no (0)
COc1ccc(NC(=S)NCCN2CCC(C)CC2)cc1	no (0)
CCn1cc(S(=O)(=O)c2cccc(C)c2)c(=O)c2cc(F)c(N3CCN(C)CC3)cc21	no (0)
CCCSc1nc2sc3c(c2c(=O)n1-c1ccc(OC)cc1)CCN(C)C3	no (0)
COc1ccc(N2CCC(CNC(=S)Nc3c(C)cccc3C)C2)cc1 (stereo unspecified)	yes (1)
CSc1nc2sc3c(c2c(=O)[nH]1)CCc1ccccc1-3	no (0)
COc1cccc(N2CC(C(=O)Nc3c(C)cccc3C)CC2=O)c1 (stereo unspecified)	no (0)
Cc1cccc(-c2nc(CS(=O)CC(=O)NC(C)CCc3ccccc3)c(C)o2)c1 (stereo unspecified)	no (0)
COc1ccc(-n2c(=S)[nH]c3sc4c(c3c2=O)CCc2ccccc2-4)cc1	yes (1)
CC(=O)/C(=N\Nc1ccc(Cl)cc1Cl)Sc1cccc2cccnc12	yes (1)

Here is the next item to consider.
Short answer needed: outcome of this test for "COc1ccc(NC(=O)C/C(C)=N/NC(=O)c2cnccn2)cc1Cl" ? no (0)

----------
# targetEntity: Nuclear receptor ROR-gamma (Mus musculus) (UniProt P51450)
# protocolSummary: qHTS for inhibitors of ROR gamma transcriptional activity; further: nearly all actives have a fitted effect of over 60% in size; further: potency means the concentration at half of the fitted maximal effect
# statedConditions: Drosophila S2 Gal4-RORgamma UAS-luciferase reporter, 20 h; series mostly up to 53.6 µM
Among all 310,000 compounds or so, about 17,000 (5.5%) were called active. Inconclusive results (about 11%) are left out. This excerpt belongs to a sample that is enriched for actives.
measuredAttribute: Potency

compound	measuredAttribute	endpointValue
CC(=O)c1cccc(NC(=S)N2CCCC2)c1	Potency	inactive
CC(NC(=O)Nc1ccccc1)c1ccccc1 (stereo unspecified)	Potency	inactive
CC(NC(=S)NNS(=O)(=O)c1ccc(C(C)(C)C)cc1)c1ccccc1 (stereo unspecified)	Potency	8.91 µM (active)
COCCCn1c(SCC(=O)NC2CCCC2)nnc1-c1ccccc1	Potency	inactive
Cc1ccc(S(=O)(=O)NNC(=O)Nc2cccc3ccccc23)cc1	Potency	inactive

The reported value for "CC(C)CN(CC(C)C)C(=O)CN1c2cccc3cccc(c23)S1(=O)=O" in terms of Potency is inactive
